- assayOverview: activity coefficient (dimensionless); of the first substance listed, at infinite dilution; xn = mol fraction of the nth substance listed
- measurementContext: 323.25 K; 101.33 kPa; Liquid; Chromatography; x1 = 0
measureName: activity coefficient

CCC(C)=O [butanone] + O    35.9

[P] CCOC(C)=O [ethyl acetate] + O
[Q] COC(C)(C)C [2-methoxy-2-methylpropane] + O
[R] CCOC=O [ethyl methanoate] + O
Order each entry by recorded activity coefficient, climbing from the minimum. Reply with the labels, ordered as the question asks.
R, P, Q
(R: 57.1, P: 90.1, Q: 235)
